STUDY_SYSTEM: UniProtKB Q13547
Sequence (Q13547 whole entry): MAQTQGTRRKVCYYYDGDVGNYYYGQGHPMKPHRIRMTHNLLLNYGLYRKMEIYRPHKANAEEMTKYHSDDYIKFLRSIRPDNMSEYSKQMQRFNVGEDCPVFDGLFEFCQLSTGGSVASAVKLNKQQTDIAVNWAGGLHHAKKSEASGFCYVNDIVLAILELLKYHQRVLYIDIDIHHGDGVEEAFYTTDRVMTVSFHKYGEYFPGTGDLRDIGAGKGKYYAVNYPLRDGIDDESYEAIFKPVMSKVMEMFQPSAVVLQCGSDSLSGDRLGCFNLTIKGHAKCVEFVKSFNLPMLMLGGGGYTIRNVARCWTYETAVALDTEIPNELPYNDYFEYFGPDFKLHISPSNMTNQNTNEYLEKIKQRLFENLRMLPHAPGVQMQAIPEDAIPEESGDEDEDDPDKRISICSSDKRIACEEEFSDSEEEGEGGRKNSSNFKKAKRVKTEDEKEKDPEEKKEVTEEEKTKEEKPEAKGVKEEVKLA
ASSAY_PROCEDURE: HDAC1 in vitro enzymatic assay (fluorescence)
Format: biochemical
COND: Table 4 selectivity profiling
ENDPOINT_LABEL: IC50
Field: value (include unit after the number)

O=C(NO)c1ccc2oc(-c3ccc(C4CC4)cc3)nc2c1 2100 nM
O=C(NO)c1ccc2oc(COc3cccc(F)c3)cc2c1 550 nM
CC(C)(C)c1ccc(-c2nc3cc(C(=O)NO)ccc3o2)cc1 1100 nM

# evaluate next
**Q:** Recorded IC50 for O=C(NO)c1ccc2oc(-c3ccc(C(F)(F)F)cc3)nc2c1 with UniProtKB Q13547, please?
**A:** 2000 nM

====

Readings of log10 of IC50 for the listed molecules
STUDY_SYSTEM: UniProt:Q9UBN7
ASSAY_PROCEDURE: HDAC6 in vitro enzymatic assay (fluorescence)
Format: biochemical
COND: Table 3; read-out: IC50 (nM) for inhibition of HDAC6
Counter-ions that a name gives are not always drawn.
Quick note: numbers are log10 of IC50, with nM as the unit.

For orientation, consider the following solved cases.
MOLECULE	ENDPOINT_LABEL	REPORTED_VALUE
Cn1c(Nc2cccc(OCc3ccccc3)c2)nc2cc(C(=O)NO)ccc21	log10 of IC50	0.00
O=C(NO)c1ccc2nc(-c3ccc4[nH]nnc4c3)oc2c1	log10 of IC50	1.78
O=C(NO)c1ccc2oc(-c3ccc(-c4ccccc4)nc3)nc2c1 [Example 161, trifluoroacetate]	log10 of IC50	1.34

**Q:** Data request, read-out log10 of IC50, for O=C(NO)c1ccc2nc(-c3ccc(-c4cccnc4)nc3)oc2c1 [Example 55, trifluoroacetate]
**A:** 1.91

**Q:** Request the reported log10 of IC50 associated with Cn1c(Nc2cccc(-c3ccccc3)c2)nc2cc(C(=O)NO)ccc21
**A:** 0.85

**Q:** Bench note: what log10 of IC50 did CC(C)c1ccc(-c2cc3ncc(C(=O)NO)cc3s2)cc1 show?
**A:** 1.70

**Q:** For the molecule COc1ccc(F)cc1-c1cc2cc(C(=O)NO)ccc2s1 , what log10 of IC50 is on record?
**A:** 1.93

**Q:** Quick check: log10 of IC50 of CS(=O)(=O)Nc1ccc(-c2cc3cc(C(=O)NO)ccc3s2)cc1 ?
**A:** 1.93

**Q:** # log10 of IC50 lookup, item O=C(NO)c1ccc2oc(NCCc3ccccc3)nc2c1
**A:** 1.32

**Q:** Given the molecule O=C(NO)c1ccc2nc(Nc3cccc(OCc4ccccc4)c3)[nH]c2c1 , what is its reported log10 of IC50?
**A:** 1.23

====

STUDY_SYSTEM: HDAC6 (Homo sapiens (Human), UniProt Q9UBN7)
Sequence (Q9UBN7 whole entry): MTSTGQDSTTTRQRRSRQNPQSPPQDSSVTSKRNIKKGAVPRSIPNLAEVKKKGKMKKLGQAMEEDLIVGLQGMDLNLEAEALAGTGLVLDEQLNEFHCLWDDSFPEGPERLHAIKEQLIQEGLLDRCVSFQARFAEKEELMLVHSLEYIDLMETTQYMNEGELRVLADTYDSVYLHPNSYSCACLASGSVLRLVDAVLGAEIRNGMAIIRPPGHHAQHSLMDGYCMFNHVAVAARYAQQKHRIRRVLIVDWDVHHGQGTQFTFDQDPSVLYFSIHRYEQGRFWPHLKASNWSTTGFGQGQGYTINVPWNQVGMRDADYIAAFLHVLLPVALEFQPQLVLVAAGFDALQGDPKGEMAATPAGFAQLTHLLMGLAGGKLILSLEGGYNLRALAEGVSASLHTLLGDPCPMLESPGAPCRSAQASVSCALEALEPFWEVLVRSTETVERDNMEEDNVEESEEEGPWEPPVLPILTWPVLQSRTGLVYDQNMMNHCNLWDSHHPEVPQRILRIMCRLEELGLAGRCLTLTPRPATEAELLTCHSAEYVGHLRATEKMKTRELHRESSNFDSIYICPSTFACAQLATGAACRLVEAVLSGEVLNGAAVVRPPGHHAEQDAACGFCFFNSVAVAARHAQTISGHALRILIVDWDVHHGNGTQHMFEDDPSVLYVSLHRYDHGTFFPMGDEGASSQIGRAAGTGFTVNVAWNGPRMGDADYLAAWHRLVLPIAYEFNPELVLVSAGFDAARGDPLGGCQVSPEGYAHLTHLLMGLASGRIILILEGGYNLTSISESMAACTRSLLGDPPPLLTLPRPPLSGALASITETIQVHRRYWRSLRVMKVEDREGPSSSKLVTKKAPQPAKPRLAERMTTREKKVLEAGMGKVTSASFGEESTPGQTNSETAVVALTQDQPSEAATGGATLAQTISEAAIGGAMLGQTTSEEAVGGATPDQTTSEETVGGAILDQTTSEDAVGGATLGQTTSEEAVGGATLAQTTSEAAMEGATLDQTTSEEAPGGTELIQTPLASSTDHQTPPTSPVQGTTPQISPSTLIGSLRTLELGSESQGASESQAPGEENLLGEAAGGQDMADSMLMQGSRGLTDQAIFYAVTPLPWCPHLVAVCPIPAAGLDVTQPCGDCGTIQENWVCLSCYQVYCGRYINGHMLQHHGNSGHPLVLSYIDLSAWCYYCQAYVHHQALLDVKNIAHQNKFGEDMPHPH
ASSAY_PROCEDURE: HDAC6 in vitro enzymatic assay (fluorescence)
Type: biochemical
COND: Table 3; read-out: IC50 (nM) for inhibition of HDAC6
ENDPOINT_LABEL: IC50
Remember to put the unit after the number in your answer.

For orientation, consider the following solved cases.
COMPOUND	ENDPOINT_LABEL	REPORTED_VALUE
O=C(NO)c1ccc2oc(-c3ccc(N4CCOCC4)nc3)nc2c1 [Example 15]	IC50	28 nM
O=C(NO)c1ccc2sc(-c3cccnc3)cc2c1 [Example 96]	IC50	64 nM

**Q:** Can you look up the measured IC50 of Cc1[nH]c2ccccc2c1-c1nc2cc(C(=O)NO)ccc2o1 [Example 228] for me?
**A:** 27 nM

**Q:** I am curious: what IC50 value has been reported for O=C(NO)c1ccc2oc(-c3ccc(-c4ccccc4)cc3F)nc2c1 [Example 173] ?
**A:** 20 nM

**Q:** Can you look up the measured IC50 of O=C(NO)c1ccc2cc(-c3ccccc3)oc2c1 [Example 282] for me?
**A:** 9 nM
